Task for the reader: assign each of the following compounds its reported absorption maximum.
- Measurement notes: solvent given as SMILES
- Assay context: in ClCCl
Give bare numbers, in nm.

// solved cases for absorption maximum follow
> print(dat)
                                   compound       readout.label  measured.value
1            CN(C)c1cc(-c2ccccc2)cc2ccccc12  absorption maximum             318
2  CC[n+]1ccc2ccccc2c1/C=C/c1c([O-])ccc2ccc(=O)oc12  absorption maximum          614.58
3  COc1ccc(C2=[N+]3C(=Nc4c(-c5ccccc5)cc(-c5ccc(OC)cc5)n4[B-]3(F)F)C(c3ccccc3)=C2)cc1  absorption maximum             688

// each compound listed below needs its absorption maximum
1. CCCCC(CC)Cn1c2cc(C#N)ccc2c2ccc(C#Cc3ccc4ccc5cccc6ccc3c4c56)cc21 (stereo unspecified)
2. CCCSC1=[N+]2C(=C(c3ccccc3)c3ccc(SCCC)n3[B-]2(F)F)C=C1SC#N
3. Cc1cc(C)c(C2=C3C=C(/C=C/C(=O)OC(C)(C)C)C=[N+]3[B-](F)(F)n3c2ccc3N2CCCC2)c(C)c1
4. CCCCCCN(CCCCCC)c1ccc(C#Cc2ccc(C(F)(F)F)cc2)cc1

[410, 545, 479, 362]

Batch request: absorption maximum for each of the following compounds.
1. Cc1cc(C)c(C2=C3C=c4c(c5ccccc5c5ccccc45)=[N+]3[B-](F)(F)n3c2cc2c4ccccc4c4ccccc4c23)c(C)c1
2. c1ccc(-c2c3ccccc3c(-c3ccc4ccccc4c3)c3ccccc23)nc1
3. c1ccc(N(c2ccccc2)c2ccc(-n3ccc4cc(-c5ccc(C6(c7ccccc7)c7ccccc7-c7ccccc76)cc5)ccc43)cc2)cc1
4. CN(C)c1cc(C#N)c(N(C)C)c(C#N)c1
5. FC(F)(F)c1ccc(C#Cc2ncc(-c3ccccc3)o2)cc1
6. Cc1ccc(-c2ccc3ccc4cc(C(C)(C)C)cc5ccc2c3c45)cc1
7. Cc1ccc2nc3cc4c(cc3c(-c3ccccc3)c2c1)[Si](C)(C)O[Si](C)(C)O[Si]4(C)C
8. Cc1ccc(-c2cccc3ncc(-c4ccccc4)n23)cc1

[673, 375, 308, 397.3, 320, 342, 371, 341]

====

- Measurement notes: solvent given as SMILES
- Assay context: in CCCCO
For each record, write down the corresponding absorption maximum.
Answers are plain numbers, in nm.

Check out these entries, answers already filled in.
> print(dat)
                            compound.string  measured.value
1    N#Cc1c(-c2ccccc2)cc(-c2ccccc2)[nH]c1=S             441
2  CN(C)c1ccc(/C=C/c2cc[n+](Cc3cc(C[n+]4ccc(/C=C/c5ccc(N(C)C)cc5)cc4)cc(C[n+]4ccc(/C=C/c5ccc(N(C)C)cc5)cc4)c3)cc2)cc1             491

Report absorption maximum for each item below.
1. COc1ccc(C(=O)/C=C2\C(=O)Nc3ccccc32)c(OC)c1
2. CCCCCCC(CCCCCC)N1C(=O)c2cccc3c(-c4ccc(OC)c5ccccc45)ccc(c23)C1=O

1: 340; 2: 323.6

====

- Measurement notes: solvent given as SMILES
- Assay context: in ClCCl
Field: absorption maximum. Provide a value for each of the molecules that follow.
Answers are plain numbers, in nm.

Examples from the recorded data:
> print(dat)
                            compound.string  output.unit  measured.value
1            C(#Cc1cccs1)c1ncc(-c2ccccc2)o1           nm             325
2  CC(C)(C)OC(=O)CN1CCN(c2ccc3c(-c4ccc(I)cc4)c4ccc(=[N+]5CCN(CC(=O)OC(C)(C)C)CC5)cc-4oc3c2)CC1           nm             564
3  CCCCCCCCCCCCCCCCCCOC(=O)/C=C/C1=CC2=C(c3c(C)cc(C)cc3C)c3cc(/C=C/C(=O)OCCCCCCCCCCCCCCCCCC)cn3[B-](F)(F)[N+]2=C1           nm             578
4  CCCCNC(=O)c1nc2c(N(C)C)nc(N(C)C)nc2n1Cc1ccccc1           nm             338
5  CC1=C(I)C(C)=[N+]2C1=C(c1c(-c3ccccn3)nc3ccccn13)c1c(C)cc(C)n1[B-]2(F)F           nm             534

Below is a list of molecules. For each, state its recorded absorption maximum.
1. C1=Cc2ccc(N(c3ccccc3)c3ccccc3)cc2C2(c3cc(N(c4ccccc4)c4ccccc4)ccc31)c1ccccc1-c1ccccc12
2. Cc1cc(C)c(-c2c3ccccc3c3ccc4cc5c(-c6c(C)cc(C)cc6C)c6ccccc6c6ccc7cc2c3c4c7c56)c(C)c1

1. 406
2. 607

Your task in this section: give absorption maximum for each listed record.
1. C1=Cc2nc1c(-c1ccccc1)c1ccc([nH]1)c(-c1ccccc1)c1cc(c(-c3ccccc3)c3ccc([nH]3)c2-c2ccccc2)N=C1
2. CC1=C(c2cccs2)C(C)=[N+]2C1=C(c1ccc(OS(=O)(=O)c3ccc([N+](=O)[O-])cc3[N+](=O)[O-])cc1)c1c(C)c(-c3cccs3)c(C)n1[B-]2(F)F
3. Clc1nnc(Oc2ccc(N(c3ccc(Br)cc3)c3ccc(Br)cc3)cc2)nn1
4. CN1c2ccc3c(c2-c2ccccc2S1(=O)=O)-c1ccccc1S(=O)(=O)N3C

1. 726
2. 533
3. 524
4. 350

====

- Measurement notes: solvent given as SMILES
- Assay context: in Cc1ccccc1
Kindly apply the following: MET if absorption maximum is less than 400 nm, NOT MET in every other case.

Some solved cases for reference:
> print(dat)
                                   molecule      cat
1  O=C1c2ccccc2-c2ccc(N3CCN(c4ccccc4)CC3)c3cccc1c23  NOT MET
2  CCOC(=O)C(C(=O)OCC)C1=[N+]2C(=C(c3ccc(C)cc3)c3ccc(Cl)n3[B-]2(F)F)C=C1  NOT MET
3  COc1cc2c3cc(OC)c(OC)cc3c3cc4c(C)cc(=O)oc4cc3c2cc1OC      MET
4  O=P1(c2ccccc2)C2=C(c3ccccc31)[Si](c1ccccc1)(c1ccccc1)c1cc(N(c3ccccc3)c3ccccc3)ccc12 (stereo not drawn)  NOT MET
5  CCOC(=O)CN1C(=O)C2=C(c3ccc(N4CCCCC4)cc3)N(CC(=O)OCC)C(=O)C2=C1c1ccc(C#N)cc1  NOT MET
6  COc1ccc(N(c2ccc(/C=C(\C)c3ccccc3)cc2)c2ccc(OC)cc2)cc1      MET
7  c1ccc(-c2cc(-c3ccc4ccc5cccc6ccc3c4c56)ccn2)nc1      MET
8  CCCCN1C(=O)C(=C/C=C/C=C2N(CCCC)c3ccccc3N2CCCC)C(=O)N(CCCC)C1=S  NOT MET

Please check: absorption maximum for O=S(=O)(c1ccc(-c2ccc(-n3c4ccccc4c4ccccc43)cc2)cc1)c1ccc(-c2ccc(-n3c4ccccc4c4ccccc43)cc2)cc1 , strictly under 400 nm or not?
MET

Again, but for Cc1ccc2oc(-c3cc4cc(C)ccc4oc3=O)cc2c1
MET

How about this molecule: CN(C)c1ccc(C2=Nc3sc4cc(F)ccc4[n+]3[B-](F)(F)O2)cc1
NOT MET

Same for CCCCCCc1ccc(/C=C/c2ccc(CCCCCC)s2)s1
MET

Proceed to c1ccc2c(c1)c1ccccc1n2-c1ccc(-c2cc3ccc(-c4ccc5cc(-c6ccc(-n7c8ccccc8c8ccccc87)cc6)oc5c4)cc3o2)cc1
MET

====

- Measurement notes: solvent given as SMILES
- Assay context: in CCCCCC
Readout label: absorption maximum (nm)
Give bare numbers, in nm.

Here's what some known entries look like.
> print(dat)
                            compound.string  measured.value
1  O=c1c2ccccc2sc2ccc(-n3c4ccccc4c4ccccc43)cc12             388
2  CCCSC1=[N+]2C(=C(c3ccccc3)c3ccc(SCCC)n3[B-]2(F)F)C=C1SC#N             556

Now look at this entry.
// absorption maximum lookup, key: Nc1ccc(/C=C/c2ccccc2)cc1
316

====

- Measurement notes: solvent given as SMILES
- Assay context: in ClCCl
The label depends only on absorption maximum: label 1 if it is at least 400 nm, label 0 if it is smaller.

Use these answered entries as a reference point.
Molecule	Cat
O=P(c1ccccc1)(c1ccccc1)c1ccc(-n2c(-c3ccccc3P(=O)(c3ccccc3)c3ccccc3)nc3ccccc32)cc1	label 0
O=[N+]([O-])c1cccc2c1ccc1[n+]2[B-](F)(F)n2c-1cc1c3ccccc3c3ccccc3c12	label 1
COc1ccccc1C1=[N+]2C(=C(c3ccccc3)c3c4c(c(-c5ccccc5OC)n3[B-]2(F)F)C2C=CC4CC2)C2=C1C1C=CC2CC1 (stereo not given)	label 1
CCCCCCCCCCCCCCCCn1c(-c2cc(-c3nc4ccccc4n3CCCCCCCCCCCCCCCC)cc(-c3nc4ccccc4n3CCCCCCCCCCCCCCCC)c2)nc2ccccc21	label 0
CCCCCCOc1cc(C=C2C(=C(C#N)C#N)c3ccccc3C2=C(C#N)C#N)c(OCCCCCC)cc1C=C1C(=C(C#N)C#N)c2ccccc2C1=C(C#N)C#N	label 1

Please examine the following record next.
Quick check: does Fc1c(F)c(F)c([B-]2(c3c(F)c(F)c(F)c(F)c3F)Oc3c(ccc4c5c(ccc34)C=[N+](c3ccccc3)[B-](c3c(F)c(F)c(F)c(F)c3F)(c3c(F)c(F)c(F)c(F)c3F)O5)C=[N+]2c2ccccc2)c(F)c1F have absorption maximum greater than or equal to 400 nm?
label 1
